Attribution: patent US20220306695A1

Can you tell me IC50[nM], inhibition of hemolysis for the items I'm about to list?
- system-tested: Human C3 (human, UniProt P01024 23-1663)
- Sequence (P01024 23-1663 limits assumed): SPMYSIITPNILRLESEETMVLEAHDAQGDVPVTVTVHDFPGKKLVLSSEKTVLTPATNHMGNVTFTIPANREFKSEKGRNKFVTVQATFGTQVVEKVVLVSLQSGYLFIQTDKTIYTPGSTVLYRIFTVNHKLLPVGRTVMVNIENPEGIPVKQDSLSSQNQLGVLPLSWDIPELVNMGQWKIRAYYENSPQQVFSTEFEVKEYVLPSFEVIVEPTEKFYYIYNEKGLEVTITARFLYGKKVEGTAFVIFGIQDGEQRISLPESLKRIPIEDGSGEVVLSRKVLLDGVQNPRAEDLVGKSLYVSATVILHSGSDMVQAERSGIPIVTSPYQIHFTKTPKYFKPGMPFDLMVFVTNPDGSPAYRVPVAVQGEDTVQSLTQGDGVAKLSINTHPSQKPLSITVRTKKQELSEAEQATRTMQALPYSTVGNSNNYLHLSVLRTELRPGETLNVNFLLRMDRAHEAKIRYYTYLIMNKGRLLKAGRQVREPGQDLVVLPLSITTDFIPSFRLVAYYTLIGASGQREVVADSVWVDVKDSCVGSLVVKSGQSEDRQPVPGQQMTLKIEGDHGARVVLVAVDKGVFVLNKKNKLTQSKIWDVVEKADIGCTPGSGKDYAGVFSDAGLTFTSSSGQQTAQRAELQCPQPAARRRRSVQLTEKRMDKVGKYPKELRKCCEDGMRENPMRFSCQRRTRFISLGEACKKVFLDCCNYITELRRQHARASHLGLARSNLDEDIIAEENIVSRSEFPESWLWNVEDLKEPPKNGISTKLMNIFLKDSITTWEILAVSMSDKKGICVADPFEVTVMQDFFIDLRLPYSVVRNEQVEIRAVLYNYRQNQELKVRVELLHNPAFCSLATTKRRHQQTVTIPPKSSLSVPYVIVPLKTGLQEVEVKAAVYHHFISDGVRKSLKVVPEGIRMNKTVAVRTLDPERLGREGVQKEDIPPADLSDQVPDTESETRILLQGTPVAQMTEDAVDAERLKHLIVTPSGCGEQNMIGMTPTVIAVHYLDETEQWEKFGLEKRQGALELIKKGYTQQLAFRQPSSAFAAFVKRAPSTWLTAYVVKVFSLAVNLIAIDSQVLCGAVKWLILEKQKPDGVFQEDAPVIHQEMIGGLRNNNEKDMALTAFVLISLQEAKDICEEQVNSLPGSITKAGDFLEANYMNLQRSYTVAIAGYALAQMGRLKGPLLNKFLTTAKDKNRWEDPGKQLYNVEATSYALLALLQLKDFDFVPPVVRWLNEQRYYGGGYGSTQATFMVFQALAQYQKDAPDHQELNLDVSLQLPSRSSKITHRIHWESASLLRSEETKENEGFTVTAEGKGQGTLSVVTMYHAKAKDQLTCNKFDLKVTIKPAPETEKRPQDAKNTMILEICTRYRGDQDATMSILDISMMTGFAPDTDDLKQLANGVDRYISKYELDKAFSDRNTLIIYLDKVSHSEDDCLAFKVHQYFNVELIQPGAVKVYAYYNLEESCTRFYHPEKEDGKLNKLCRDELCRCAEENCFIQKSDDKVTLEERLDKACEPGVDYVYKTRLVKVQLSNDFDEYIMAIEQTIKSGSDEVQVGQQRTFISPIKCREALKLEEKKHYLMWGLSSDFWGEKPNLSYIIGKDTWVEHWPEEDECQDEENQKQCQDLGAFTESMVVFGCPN
- experiment-summary: cell-based or functional assay
Starred links: 1 amine or outer side, 2 acyl side, 3 side chain; linkers in the order of their positions; H or OH if unused. Positions of bridges follow the written chain, without caps; N, C: chain ends. Non-standard residues stand in square brackets, D forms with d. Groups on a side chain read outwards from the residue. *: point of attachment. Trp(1-Me) = Cn1cc(C[C@H](N)C(=O)O)c2ccccc21; C18 diacid = O=C(O)CCCCCCCCCCCCCCCCC(=O)*; γGlu = O=C(O)[C@H](CCC(=O)[*:2])N[*:1]; NMeI = CC[C@H](C)[C@H](NC)C(=O)O; AEEA = NCCOCCOCC(=O)O; Sar = CNCC(=O)O

Q: Name the recorded IC50[nM], inhibition of hemolysis of the binder listed here: Ac-ICIWQKWGEHRCT-NH2 (disulfide 2-12; SMILES CC[C@H](C)[C@H](NC(C)=O)C(=O)N[C@H]1CSSC[C@@H](C(=O)N[C@H](C(N)=O)[C@@H](C)O)NC(=O)[C@H](CCCNC(=N)N)NC(=O)[C@H](Cc2c[nH]cn2)NC(=O)[C@H](CCC(=O)O)NC(=O)CNC(=O)[C@H](Cc2c[nH]c3ccccc23)NC(=O)[C@H](CCCCN)NC(=O)[C@H](CCC(N)=O)NC(=O)[C@H](Cc2c[nH]c3ccccc23)NC(=O)[C@H]([C@@H](C)CC)NC1=O) [Compound 7]
Result: < 1000 nM

Q: Indicate its recorded IC50[nM], inhibition of hemolysis; the binder in question is Ac-ICIWQDWGAHRCE-NH2 (disulfide 2-12; SMILES CC[C@H](C)[C@H](NC(C)=O)C(=O)N[C@H]1CSSC[C@@H](C(=O)N[C@@H](CCC(=O)O)C(N)=O)NC(=O)[C@H](CCCNC(=N)N)NC(=O)[C@H](Cc2c[nH]cn2)NC(=O)[C@H](C)NC(=O)CNC(=O)[C@H](Cc2c[nH]c3ccccc23)NC(=O)[C@H](CC(=O)O)NC(=O)[C@H](CCC(N)=O)NC(=O)[C@H](Cc2c[nH]c3ccccc23)NC(=O)[C@H]([C@@H](C)CC)NC1=O) [Compound 12]
Result: < 100 nM

Q: Please supply the value of reported IC50[nM], inhibition of hemolysis for the item H-[dY]ICI[Trp(1-Me)]QDW[Sar]AHRC[NMeI]-NH2 (disulfide 3-13; SMILES CC[C@H](C)[C@H](NC(=O)[C@H](N)Cc1ccc(O)cc1)C(=O)N[C@H]1CSSC[C@@H](C(=O)N(C)[C@H](C(N)=O)[C@@H](C)CC)NC(=O)[C@H](CCCNC(=N)N)NC(=O)[C@H](Cc2c[nH]cn2)NC(=O)[C@H](C)NC(=O)CN(C)C(=O)[C@H](Cc2c[nH]c3ccccc23)NC(=O)[C@H](CC(=O)O)NC(=O)[C@H](CCC(N)=O)NC(=O)[C@H](Cc2cn(C)c3ccccc23)NC(=O)[C@H]([C@@H](C)CC)NC1=O) [Compound 48]
Result: < 100 nM

Q: Give recorded IC50[nM], inhibition of hemolysis. SEFAIWQDWGEHRCGEXXK (not fully specified; N-acetyl; C-terminal amide; delta-cystathionine (Ctt2) thioether bridge A4-hCys14 (hCys written C); W6 is 1-Me-Trp; G10 is Sar; G15 is Sar; X17 and X18 are Peg3; K19 side chain bears [17-carboxy-heptadecanoyl][γGlu]G[γGlu]) [Compound 147]
Result: < 100 nM

Q: Please give measured IC50[nM], inhibition of hemolysis of the following entry: Ac-SEFCI[Trp(1-Me)]QDWGEHRCTEGE[AEEA][AEEA]K([γGlu-Gly-γGlu-C18 diacid])-NH2 (disulfide 4-14) [Compound 126]
Result: < 100 nM
